Tested on: UACC-257 melanoma
Experiment: NCI tumour cell line growth inhibition, 48 h
Please respond with reported TGI for every item in the list.

Recorded results for 6 molecules are shown here.
NC1CCCC[C@H]1N.N[C@@H]1CCCC[C@@H]1N.O=C(P(=O)([O-])[O-])P(=O)([O-])[O-].[Pt+4].[Pt+4]    > 100 µM
O=C(O)c1nc(-c2ccccn2)c(-c2ccccn2)nc1C(=O)O    16.4 µM
O=C1/C(=C\c2cccn2Cc2ccccc2)c2ccccc2N1c1c(Cl)cccc1Cl    > 100 µM
O=C(C[n+]1ccccc1)NNC(=O)/C(=C/c1ccc2c(c1)OCO2)NC(=O)c1ccccc1    > 100 µM
Cc1ccc(S(=O)(=O)C2=Cc3ccc(C(F)(F)F)cc3C2(O)c2cccc(C(F)(F)F)c2)cc1 (stereo unspecified)    3.93 µM
O=C(CCC/C(CC(=O)c1ccc(Br)cc1)=N\O)Nc1ccccc1    > 100 µM

Answer for every listed entry: what is its TGI? The entries follow.
1. N#CC(NNC(=O)Cc1ccccc1)c1ccccc1O (stereo unspecified)
2. C=CCN1C[C@H](C)N([C@H](c2ccc(C(=O)N(CC)CCO)cc2)c2cccc(OC)c2)C[C@H]1C
3. OCCCCC#Cc1ccccc1C#Cc1cccc(O)c1
4. CCCCCC(C[N+]1(C)CCOCC1)C(=O)/C=C/c1ccccc1 (stereo unspecified)

[out]
["> 94.3 µM", "> 100 µM", "33.1 µM", "27.6 µM"]

Answer for every listed entry: what is its TGI? The entries follow.
1. CC12CCC(C(=O)OC1=O)C2(C)C (stereo unspecified)
2. CCC1c2[nH]c3ccccc3c2C[C@H]2C(=O)NC(COC(C)(C)C)C(=O)N12 (stereo partly specified)
3. CC(=O)OC1CC2c3cccc4c3C(CC2N(C)C1=O)CN4C(=O)c1ccccc1 (stereo unspecified)
4. COc1cc2cn3c4ccc(O)cc4[nH]c(=O)c3c2cc1OC
5. CCN(CC)c1ccc2cc(-c3nnc(-c4ccccc4)o3)c(=O)oc2c1

[out]
["> 100 µM", "> 100 µM", "49.9 µM", "0.419 µM", "> 100 µM"]

Answer for every listed entry: what is its TGI? The entries follow.
1. O=C1c2cc3c(cc2CC12Cc1cc4c(cc1C2=O)CCC4)CCCC3 (stereo unspecified)
2. Cc1[nH]n(-c2cccc(Cl)c2)c(=O)c1/C=C1\C=Nc2ccc(Br)cc21
3. O=C1NC(=O)C(CCO)(c2ccccc2)C(=O)N1
4. N#CC(C(=O)/C(=N/Nc1nc(=S)[nH]n1N)C(C#N)c1ccccc1)c1ccccc1 (stereo unspecified)
5. CC(=O)OCC1OC(Nc2ncc(-c3ccc(C)cc3)s2)C(OC(C)=O)C(OC(C)=O)C1OC(C)=O (stereo unspecified)

[out]
> 100 µM
> 100 µM
> 100 µM
> 100 µM
58.3 µM

Measured on UACC-257 melanoma, COC(COC(=O)N1CCN(C=O)CC1)C1=C(N2CC2)C(=O)C(C)=C(N2CC2)C1=O (stereo unspecified) has a documented TGI of 1.9 µM
